Tested on: HIV-1 NL4-3 strain
test name: Evaluation of antiviral activity: acute infection system of MT-4 cell with HIV-1 NL4-3 strain
Assay type: cell-based
reported conditions: Human immunodeficiency virus 1, NL43, MT4, 120 h, read-out: antiviral activity (EC50), MT-4 cells infected with HIV-1 NL4-3 strain (MOI 0.05), cultured 5 days, Cell Titer-Glo
Counter-ions that a name gives are not always drawn.
What pEC50 was measured for each of the following?
Keep in mind that pEC50 stands for -log10 of concentration in molar terms.

# pEC50 of CCN1C[C@]2(C[C@H]2COC)n2cc(C(=O)NCc3ccc(F)cc3F)c(=O)c(O)c2C1=O [Example T9, hydrochloride] = 8.24

Record COC[C@@H]1C[C@]12Cn1cc(C(=O)NCc3cccc(Cl)c3F)c(=O)c(O)c1C(=O)N2C [Example T50, hydrochloride] , field pEC50: 8.43

Record CC(C)N1C[C@@]2(C[C@H]2CO)n2cc(C(=O)NCc3cccc(Cl)c3F)c(=O)c(O)c2C1=O [Example T28, hydrochloride] , field pEC50: 8.28

What the record says about CCN1C[C@]2(C[C@H]2COC)n2cc(C(=O)NCc3cccc(Cl)c3F)c(=O)c(O)c2C1=O [Example T20, hydrochloride] : pEC50 is 8.46

###

System: HIV-1 NL4-3 strain
test name: Evaluation of antiviral activity: acute infection system of MT-4 cell with HIV-1 NL4-3 strain
Assay type: cell-based
reported conditions: Human immunodeficiency virus 1, NL43, MT4, 120 h, MT-4 cells infected with HIV-1 NL4-3 strain (MOI 0.05), cultured 5 days, Cell Titer-Glo; read-out: antiviral activity (EC50)
Where a name gives a salt, the structure may show the parent alone.
Consider the cut-off 0.01 µM. If the recorded EC50 is strictly smaller, the label is met; if not, the label is not met.

Prompt line: Dear reviewer, please state whether CC(C)N1C(=O)c2c(O)c(=O)c(C(=O)NCc3ccc(F)cc3F)cn2C[C@]12C[C@H](O)C2 [Example S55, hydrochloride] has EC50 strictly beneath 0.01 µM.
Response line: not met

Prompt line: Identify whether the molecule CCO[C@H]1C[C@]2(CN(C)C(=O)c3c(O)c(=O)c(C(=O)NCc4cccc(Cl)c4F)cn32)C1 [Example S29, hydrochloride] records EC50 below 0.01 µM.
Response line: met

Prompt line: Answer whether the molecule COC[C@H]1C[C@]2(CN(C)C(=O)c3c(OC(=O)C(C)(C)C)c(=O)c(C(=O)NCc4cccc(Cl)c4F)cn32)C1 [Example S71] has EC50 strictly less than 0.01 µM
Response line: met

Prompt line: is_below(EC50, 0.01 µM) for CC(=O)NC[C@H]1C[C@]2(CN(C(C)C)C(=O)c3c(O)c(=O)c(C(=O)NCc4ccc(F)cc4F)cn32)C1 [Example S38, hydrochloride] ?
Response line: not met

Prompt line: Identify whether the molecule CN1C[C@]2(C[C@@H](CO)C2)n2cc(C(=O)NCc3cccc(Cl)c3F)c(=O)c(O)c2C1=O [Example S36] records EC50 below 0.01 µM.
Response line: not met

Prompt line: Is EC50 strictly under 0.01 µM for the entry CC(C)N1C(=O)c2c(O)c(=O)c(C(=O)NCc3ccc(F)cc3F)cn2C[C@]12C[C@@H](O)C2 [Example S54, hydrochloride] ?
Response line: not met

###

Test system: HIV-1 NL4-3 strain
test name: Evaluation of antiviral activity: acute infection system of MT-4 cell with HIV-1 NL4-3 strain
Assay type: cell-based
reported conditions: Human immunodeficiency virus 1, NL43, MT4, 120 h, read-out: antiviral activity (EC50), MT-4 cells infected with HIV-1 NL4-3 strain (MOI 0.05), cultured 5 days, Cell Titer-Glo
pEC50: −log10 of the molar value. Structures can show the parent of a compound that is named as a salt.
Tag: T if measured pEC50 is not below 8, F if it is.

Prompt line: # check: pEC50 of CCOc1ccc(CNC(=O)c2cn3c(c(O)c2=O)C(=O)N(C)C[C@]32C[C@H]2COC)c(F)c1Cl [Example T38, hydrochloride] is greater than or equal to 8
Response line: F

Prompt line: # bool: pEC50 of COC[C@@H]1C[C@]12CN(C(C)C)C(=O)c1c(O)c(=O)c(C(=O)NCc3cccc(Cl)c3F)cn12 [Example T6, hydrochloride] >= 8
Response line: T

Prompt line: State whether the measured pEC50 reaches 8, counting equality as reaching it, for CCN1C[C@@]2(C[C@H]2CO)n2cc(C(=O)NCc3cccc(Cl)c3F)c(=O)c(O)c2C1=O [Example T29, hydrochloride]
Response line: T

Prompt line: pEC50 >= 8 for CN1C[C@@]2(C[C@@H]2CO)n2cc(C(=O)NCc3ccc(F)cc3F)c(=O)c(O)c2C1=O [Example T4, hydrochloride] ?
Response line: F

Prompt line: Is reported pEC50 greater than or equal to 8 here: CC(C)N1C[C@]2(C[C@H]2C(=O)N(C)C)n2cc(C(=O)NCc3cccc(Cl)c3F)c(=O)c(O)c2C1=O [Example T14, hydrochloride]
Response line: T
